target: PXR (NR1I2) (Homo sapiens (Human), UniProt O75469); assay: Human PXR activation assay (luciferase reporter, DPX2 cells); type: cell-based; conditions: human
Sequence (O75469 whole entry): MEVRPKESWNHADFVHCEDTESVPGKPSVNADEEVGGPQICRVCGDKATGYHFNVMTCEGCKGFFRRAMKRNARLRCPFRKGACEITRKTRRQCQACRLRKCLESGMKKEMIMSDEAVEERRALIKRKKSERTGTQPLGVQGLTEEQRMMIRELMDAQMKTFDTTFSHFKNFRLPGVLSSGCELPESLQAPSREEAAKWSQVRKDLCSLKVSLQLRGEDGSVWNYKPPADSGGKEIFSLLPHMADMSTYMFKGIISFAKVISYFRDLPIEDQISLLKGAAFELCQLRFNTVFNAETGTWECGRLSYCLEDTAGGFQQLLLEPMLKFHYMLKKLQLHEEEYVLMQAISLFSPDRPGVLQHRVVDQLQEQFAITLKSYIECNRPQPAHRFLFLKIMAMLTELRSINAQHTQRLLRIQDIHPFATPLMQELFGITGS
readout-kind: inhibition at 15 µM (%)
Give just the numeric value; % need not be written.

Q: Which inhibition at 15 µM value belongs to CN1C(=O)c2c(O)c(=O)c(C(=O)NCc3c(F)cc(F)cc3F)cn2[C@H]2COCC[C@]21C(F)F [Compound 9] ?
Result: 27

* * *

tested on: HIV-1 E138K/Q148K; assay type: cell-based; conditions: MT2 cells; mean EC50 mutant / mean EC50 wt
readout-kind: Resistance fold shift E138K/Q148K vs. wild type (fold shift)
Your answer is read as fold shift, so omit the unit and give the number.

# count of solved cases: 3
Q: Could you tell me which Resistance fold shift E138K/Q148K vs. wild type is on file for CCN1C(=O)c2c(O)c(=O)c(C(=O)NCc3ccc(F)c(Cl)c3F)cn2[C@H]2CCOC[C@H]21 [Compound 39] ?
Result: 1.5

Q: Please report the recorded Resistance fold shift E138K/Q148K vs. wild type for CCN1C(=O)c2c(O)c(=O)c(C(=O)NCc3c(F)cc(F)cc3F)cn2[C@H]2CCOC[C@H]21 [Compound 33] .
Result: 5.9

Q: What does the data say about its Resistance fold shift E138K/Q148K vs. wild type? Entry: CCN1C(=O)c2c(O)c(=O)c(C(=O)NCc3ccc(F)c(Cl)c3F)cn2[C@H]2CCO[C@H]21 [Compound 25b]
Result: 2.3

---
Q: Returns the measured Resistance fold shift E138K/Q148K vs. wild type for the input compound. Input: CCN1C(=O)c2c(O)c(=O)c(C(=O)NCc3ccc(F)cc3F)cn2[C@H]2CCOC[C@H]21 [Compound 41]
Result: 3.5

Q: # lookup: Resistance fold shift E138K/Q148K vs. wild type of CCN1C(=O)c2c(O)c(=O)c(C(=O)NCc3c(F)cc(F)cc3F)cn2[C@H]2COC[C@H]21 [Compound 44]
Result: 23.8

Q: Item under review: C[C@@H]1CCO[C@H]2Cn3cc(C(=O)NCc4ccc(F)cc4F)c(=O)c(O)c3C(=O)N12 [Dolutegravir, reference compound] . Reported Resistance fold shift E138K/Q148K vs. wild type?
Result: 8.2
